Listing: Ki of selected molecules
biological target: BRD3 BD2 (Homo sapiens (Human)); assay: FP competitive binding assay using Cpd. No. 350 as the probe
Express it in nM; write the number only.

// known answers, use as guide
molecule: COc1cc2c(cc1-c1c(C)noc1C)[nH]c1ccncc12
quantity.name: Ki
units: nM
val: 14.3
//
molecule: COc1cc2c(cc1-c1c(C)nn(C)c1C)[nH]c1ccnc(-c3c(C)nn(C)c3C)c12
quantity.name: Ki
units: nM
val: 348

Inquiry: Answer with the recorded Ki of COc1cc2c(cc1-c1c(C)noc1C)[nH]c1ccnc(-c3c(C4CC4)n[nH]c3C)c12 only.
Reply text: 50.9

====

biological target: BRD3 BD2 (Homo sapiens (Human), UniProt Q15059); test: FP competitive binding assay using Cpd. No. 350 as the probe; conditions: read-out: BRD3 BD2 Ki; FP, Cpd. No. 350 probe […]
Sequence (Q15059 306-415): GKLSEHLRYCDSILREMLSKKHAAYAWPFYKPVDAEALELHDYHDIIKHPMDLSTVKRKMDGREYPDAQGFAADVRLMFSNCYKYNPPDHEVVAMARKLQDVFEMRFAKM
quantity.name: pKi
Scale note: pKi = -log10(concentration in M).

Inquiry: Tell us which pKi value is on record for COc1cc2c(cc1-c1c(C)noc1C)[nH]c1nc(C)nc(-c3ccnc4ccccc34)c12 [Cpd. No. 73]
Reply text: 8.59

====

# key: entry, value: Kd
target: BRD2 BD2 (Homo sapiens (Human), UniProt P25440); test: OctetRED biolayer interferometry (BLI) binding assay
Sequence (P25440 344-453): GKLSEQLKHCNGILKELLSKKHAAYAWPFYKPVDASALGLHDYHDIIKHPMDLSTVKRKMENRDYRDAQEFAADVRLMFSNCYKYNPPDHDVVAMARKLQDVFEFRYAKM
Numeric answer only, unit nM assumed.

molecule: COc1cc2c(cc1-c1c(C)noc1C)[nH]c1ccnc(-c3c(C)nn(C)c3C)c12
quantity.name: Kd
units: nM
val: 35.9

Inquiry: Output measured Kd for this item: COc1cc2c(cc1-c1c(C)noc1C)[nH]c1ccnc(-c3c(C)n[nH]c3C)c12
Reply text: 24.4

Inquiry: Tell me Kd reported for COc1cc2c(cc1-c1c(C)noc1C)[nH]c1ncnc(-c3c(C)[nH]c4ccccc34)c12
Reply text: 11

====

molecular target: BRD2 BD1 (Homo sapiens (Human)); assay: OctetRED biolayer interferometry (BLI) binding assay
Sequence (P25440 74-180): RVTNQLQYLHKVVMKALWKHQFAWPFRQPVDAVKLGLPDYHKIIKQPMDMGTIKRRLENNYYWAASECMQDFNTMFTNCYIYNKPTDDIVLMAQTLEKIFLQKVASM
quantity.name: Kd (nM)
Provide the reading as a plain figure in nM.

Example molecules with recorded Kd:
molecule: COc1cc2c(cc1-c1c(C)noc1C)[nH]c1ccnc(-c3c(C)n[nH]c3C)c12
Kd / nM: 34
//
molecule: COc1cc2c(cc1-c1c(C)noc1C)[nH]c1ccnc(-c3c(C)nn(C)c3C)c12
Kd / nM: 41.2
//
molecule: CCc1n[nH]c(CC)c1-c1nccc2[nH]c3cc(-c4c(C)noc4C)c(OC)cc3c12
Kd / nM: 25.6

Inquiry: Using the record for COc1cc2c(cc1-c1c(C)noc1C)[nH]c1ncnc(-c3c(C)[nH]c4ccccc34)c12 , state its measured Kd.
Reply text: 33.8

====

Target: BRD3 BD2 (Homo sapiens (Human), UniProt Q15059)
Assay: OctetRED biolayer interferometry (BLI) binding assay
Description: Binding affinities of synthesized compounds to BRD2 BD1 and BD2, BRD3 BD1 and BD2, and BRD4 BD1 and BD2 were also determined by a label free binding assay using the OctetRED label free biolayer interferometry (BLI) binding assay. BLI measures interference pattern changes of light reflected from an optical layer and a biolayer containing protein targets only or complexed with interacting partners. […]
quantity.name: Kd (nM)
// note: answer is a bare numeric in nM

Inquiry: Answer with the recorded Kd for the compound listed here: COc1cc2c(cc1-c1c(C)noc1C)[nH]c1ccnc(-c3c(C)n[nH]c3C)c12
Reply text: 18.7
